experiment: Acute toxicity was assessed after ip administration of a single dose of 325 mg/kg to a group of 5 female CD-1 mice; format: organism-based; design: dose 325 mg/kg, route intraperitoneal; conditions: CD-1, mouse, in vivo
Reported values of LD50 for individual entries
Give just the number in mg/kg; leave the unit off.

Here is how some compounds turned out for LD50.
- compound: "CCNCCC(O)CNCCCCNCC(O)CCNCC (stereo not drawn)"
  LD50 / mg/kg: 325
- compound: "CCNCCCNCCCNCCCNCC [BIS(ETHYL)NORSPERMINE]"
  LD50 / mg/kg: 325

Pending compound:
LD50 reading for CCNCCCCNCCCCNCCCCNCC [DIETHYLHOMOSPERMINE] : 325

###

system: L1210; test: Ability to competitively inhibit radioligand spermidine transport in L1210 cells; assay type: functional, cell-based, Mus musculus
measured.endpoint: Ki (nM)
Give just the number in nM; leave the unit off.

Ki reading for CCNCCC(O)CNCCCCNCC(O)CCNCC (stereo unspecified) : 1800
